B1: mouse full-length p65-HA [mouse] / glycogen synthase kinase 3β (Gsk3β) [mouse (endogenous in hippocampal tissue)] (parent)
chain 1: MDDLFPLIFPSEPAQASGPYVEIIEQPKQRGMRFRYKCEGRSAGSIPGERSTDTTKTHPTIKINGYTGPGTVRISLVTKDPPHRPHPHELVGKDCRDGYYEADLCPDRSIHSFQNLGIQCVKKRDLEQAISQRIQTNNNPFHVPIEEQRGDYDLNAVRLCFQVTVRDPAGRPLLLTPVLSHPIFDNRAPNTAELKICRVNRNSGSCLGGDEIFLLCDKVQKEDIEVYFTGPGWEARGSFSQADVHRQVAIVFRTPPYADPSLQAPVRVSMQLRRPSDRELSEPMEFQYLPDTDDRHRIEEKRKRTYETFKSIMKKSPFNGPTEPRPPTRRIAVPTRNSTSVPKPAPQPYTFPASLSTINFDEFSPMLLPSGQISNQALALAPSSAPVLAQTMVPSSAMVPLAQPPAPAPVLTPGPPQSLSAPVPKSTQAGEGTLSEALLHLQFDADEDLGALLGNSTDPGVFTDLASVDNSEFQQLLNQGVSMSHSTAEPMLMEYPEAITRLVTGSQRPPDPAPTPLGTSGLPNGLSGDEDFSSIADMDFSALLSQISS
chain 2: MSGRPRTTSFAESCKPVQQPSAFGSMKVSRDKDGSKVTTVVATPGQGPDRPQEVSYTDTKVIGNGSFGVVYQAKLCDSGELVAIKKVLQDKRFKNRELQIMRKLDHCNIVRLRYFFYSSGEKKDEVYLNLVLDYVPETVYRVARHYSRAKQTLPVIYVKLYMYQLFRSLAYIHSFGICHRDIKPQNLLLDPDTAVLKLCDFGSAKQLVRGEPNVSYICSRYYRAPELIFGATDYTSSIDVWSAGCVLAELLLGQPIFPGDSGVDQLVEIIKVLGTPTREQIREMNPNYTEFKFPQIKAHPWTKVFRPRTPPEAIALCSRLLEYTPTARLTPLEACAHSFFDELRDPNVKLPNGRDTPALFNFTTQELSSNPPLATILIPPHARIQAAASPPANATAASDTNAGDRGQTNNAASASASNST

Variants of: B1
ASSAY_REMARKS: co-IP with HA (p65) followed by WB, band quantification
SETUP_CONDITIONS: with glycogen synthase kinase 3β (Gsk3β) [mouse (endogenous in hippocampal tissue)]; p65-HA variant co-expressed with Ogt-Flag and Gsk3β; n = 3 independent experiments; parent: 1; read off a plot
TEST_READOUT: response (relative protein level (Gsk3β / HA))

// solved cases for response (relative protein level (Gsk3β / HA)) follow
Qu. Which response (relative protein level (Gsk3β / HA)) is listed for chain 1 S374A ?
Ans. 1

Qu. # response (relative protein level (Gsk3β / HA)) lookup, item chain 1 S370A
Ans. 1.1

[a] chain 1 S396A
[b] chain 1 S384A
Qu. Among a and b , which shows a numerically higher response (relative protein level (Gsk3β / HA)) result? Answer with the label corresponding to your selection.
Ans. b
